Provide the reported EC50 of each item.
# TESTED_TARGET: human mGlu5a receptor (Homo sapiens (Human), UniProt P41594)
# Sequence (P41594 other isoform, or with tags, fused parts or gaps): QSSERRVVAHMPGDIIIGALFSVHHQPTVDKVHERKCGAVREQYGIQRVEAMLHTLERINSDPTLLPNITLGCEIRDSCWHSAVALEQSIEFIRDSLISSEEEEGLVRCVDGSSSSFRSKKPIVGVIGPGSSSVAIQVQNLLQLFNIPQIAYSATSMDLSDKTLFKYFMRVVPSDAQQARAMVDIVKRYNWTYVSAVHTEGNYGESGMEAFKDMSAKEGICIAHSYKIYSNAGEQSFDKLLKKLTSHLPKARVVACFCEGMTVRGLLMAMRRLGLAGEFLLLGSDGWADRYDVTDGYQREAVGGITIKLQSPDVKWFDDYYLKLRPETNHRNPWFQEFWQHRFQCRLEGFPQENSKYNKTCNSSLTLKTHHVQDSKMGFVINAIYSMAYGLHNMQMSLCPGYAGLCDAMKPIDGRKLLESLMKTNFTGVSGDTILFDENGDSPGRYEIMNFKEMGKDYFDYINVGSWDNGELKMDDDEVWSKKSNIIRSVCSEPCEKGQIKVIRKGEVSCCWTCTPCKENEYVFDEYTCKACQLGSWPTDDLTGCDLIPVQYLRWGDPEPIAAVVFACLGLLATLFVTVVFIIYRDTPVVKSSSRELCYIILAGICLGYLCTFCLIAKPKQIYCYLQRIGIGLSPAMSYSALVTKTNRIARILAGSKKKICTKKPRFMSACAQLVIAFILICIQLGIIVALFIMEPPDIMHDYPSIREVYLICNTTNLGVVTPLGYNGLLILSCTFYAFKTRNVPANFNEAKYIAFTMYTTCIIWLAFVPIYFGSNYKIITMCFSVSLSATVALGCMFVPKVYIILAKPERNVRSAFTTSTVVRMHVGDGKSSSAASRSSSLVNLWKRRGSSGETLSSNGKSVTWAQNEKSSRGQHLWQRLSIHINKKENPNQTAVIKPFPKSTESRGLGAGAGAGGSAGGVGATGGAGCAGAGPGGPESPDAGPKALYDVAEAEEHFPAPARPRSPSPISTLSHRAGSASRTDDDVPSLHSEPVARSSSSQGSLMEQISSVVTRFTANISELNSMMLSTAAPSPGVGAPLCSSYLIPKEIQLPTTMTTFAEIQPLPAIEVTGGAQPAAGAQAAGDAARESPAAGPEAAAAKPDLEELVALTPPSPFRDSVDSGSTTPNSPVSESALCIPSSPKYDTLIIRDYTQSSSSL
# ASSAY: Intracellular Ca2+ mobilization assay (mGlu5 PAM)
# Assay type: cell-based
# MEASUREMENT_SETUP: HEK-293 cells stably transfected with human mGlu5a; L-glutamate added at EC20 after pre-incubation with test compound; read-out: EC50 (nM) mGlu5PAM
Give just the numeric value; nM need not be written.

Consider the compound CO[C@@H]1C(=O)N(c2ncc(C#Cc3cccc(F)c3)cn2)CC1(C)C (single isomer, unassigned) and give its measured EC50.
35

Consider the compound COC1C(=O)N(c2ncc(C#Cc3cccc(F)c3)cn2)CC1(C)C (racemic) and give its measured EC50.
41

Consider the compound CN1C(=O)N(c2cnc(C#Cc3ccc(F)cc3)cn2)CC1(C)C and give its measured EC50.
49

Consider the compound CC1(C)CC(=O)N(c2ccc(C#Cc3ccccc3)nn2)C1 and give its measured EC50.
21

Consider the compound O=C1O[C@H]2CCC[C@H]2N1c1ccc(C#Cc2cccnc2)cn1 (racemic) and give its measured EC50.
12

Consider the compound CC1CN(c2ccc(C#Cc3ccccc3)cn2)C(=O)OC1(C)C (racemic) and give its measured EC50.
42

Consider the compound CC1(C)CN(c2ccc(C#Cc3ccccc3)cn2)C(=O)O1 and give its measured EC50.
7

Consider the compound CN1C(=O)N(c2ncc(C#Cc3ccccc3)cn2)CCC1(C)C and give its measured EC50.
66

Consider the compound CN1C(=O)N(c2ccc(C#Cc3ccccc3)cn2)CC12CC2 and give its measured EC50.
35

Consider the compound CO[C@@H]1C(=O)N(c2ncc(C#Cc3cc(F)ccc3F)cn2)CC1(C)C (single isomer, unassigned) and give its measured EC50.
57

Consider the compound CC1(C)CCN(c2ccc(C#Cc3cncc(F)c3)cn2)C(=O)O1 and give its measured EC50.
59

Consider the compound CN1C(=O)N(c2ccc(C#Cc3cccc(Cl)c3)cn2)CC1(C)C and give its measured EC50.
32

Consider the compound CN1C(=O)N(c2ncc(C#Cc3cccc(F)c3)cn2)CCC1(C)C and give its measured EC50.
60

Consider the compound COC1C(=O)N(c2ccc(C#Cc3cncc(Cl)c3)cn2)CC1(C)C (racemic) and give its measured EC50.
70

Consider the compound Cc1cccc(C#Cc2ccc(N3CCC(C)(C)OC3=O)nc2)c1 and give its measured EC50.
24

Consider the compound Cc1cccc(C#Cc2ccc(N3CC(C)(C)N(C)C3=O)nc2)c1 and give its measured EC50.
87

Consider the compound CC1(C)CN(c2ccc(C#Cc3cncc(F)c3)cn2)C(=O)O1 and give its measured EC50.
15

Consider the compound COC[C@@H]1CN(c2ccc(C#Cc3ccccc3)cn2)C(=O)O1 (single isomer, unassigned) and give its measured EC50.
278

Consider the compound CC1(C)CNC(=O)N(c2ccc(C#Cc3ccccc3)cn2)C1 and give its measured EC50.
69

Consider the compound CCN1C(=O)N(c2ccc(C#Cc3ccccc3)cn2)CC1(C)C and give its measured EC50.
66

Consider the compound CN1C(=O)N(c2ccc(C#Cc3cncc(F)c3)cn2)CC1(C)C and give its measured EC50.
37

Consider the compound CN1C(=O)N(c2ccc(C#Cc3ccc(F)cc3)cn2)CC12CC2 and give its measured EC50.
80

Consider the compound Cc1cc(C#Cc2ccccc2)cnc1N1CC(C)(C)CC1=O and give its measured EC50.
58

Consider the compound CO[C@H]1C(=O)N(c2ccc(C#Cc3ccccc3)cn2)CC1(C)C (single isomer, unassigned) and give its measured EC50.
12

Consider the compound O=C1CS(=O)(=O)CCN1c1ccc(C#Cc2ccccc2)cn1 and give its measured EC50.
29

Consider the compound CN1C(=O)N(c2ccc(C#Cc3ccc(F)cc3)cn2)CC1(C)C and give its measured EC50.
35

Consider the compound O=C1O[C@H]2CCCC[C@H]2N1c1ccc(C#Cc2ccccc2)cn1 (racemic) and give its measured EC50.
36

Consider the compound CN1C(=O)N(c2cnc(C#Cc3ccccc3)cn2)CCC1(C)C and give its measured EC50.
36

Consider the compound COC1C(=O)N(c2ccc(C#Cc3ccccc3)cn2)CC1(C)C (racemic) and give its measured EC50.
35

Consider the compound CN1C(=O)N(c2ccc(C#Cc3cccc(F)c3)cn2)CC1(C)C and give its measured EC50.
29

Consider the compound CN1C(=O)N(c2ccc(C#Cc3cccc(F)c3)nn2)[C@@H]2CCC[C@@H]21 (racemic) and give its measured EC50.
12

Consider the compound CN1C(=O)N(c2ccc(C#Cc3cncc(F)c3)cn2)C2CCCCC21 (centres unmarked) and give its measured EC50.
32

Consider the compound CC1(C)CC(=O)N(c2ccc(C#Cc3cccnc3)cn2)C1 and give its measured EC50.
33

Consider the compound CC1(C)CCN(c2cnc(C#Cc3cccnc3)cn2)C(=O)C1 and give its measured EC50.
681

Consider the compound CN1C(=O)N(c2ccc(C#Cc3ccccc3)cn2)CC12CCCC2 and give its measured EC50.
29

###

# TESTED_TARGET: human mGlu5a receptor (Homo sapiens (Human), UniProt P41594)
# ASSAY: Intracellular Ca2+ mobilization assay (mGlu5 PAM)
# Format: cell-based
# MEASUREMENT_SETUP: maximal response in % of the maximal stimulatory effect obtained with saturating concentrations of L-glutamate; read-out: Eff. (%)
METRIC: Emax (%)
Give just the numeric value; % need not be written.

Consider the compound COC1C(=O)N(c2ncc(C#Cc3cccc(F)c3)cn2)CC1(C)C (racemic) and give its measured Emax.
74

Consider the compound CC(C)N1C(=O)N(c2ncc(C#Cc3ccc(F)cc3)cn2)CC1(C)C and give its measured Emax.
74

Consider the compound CC1(C)CC(=O)N(c2ncc(C#Cc3cccc(F)c3)cn2)C1 and give its measured Emax.
78

Consider the compound CC1(C)CC(=O)N(c2ccc(C#Cc3cccnc3)cn2)C1 and give its measured Emax.
147

Consider the compound Cc1cccc(C#Cc2ccc(N3CC(C)(C)N(C)C3=O)nn2)c1 and give its measured Emax.
108

Consider the compound CN1C(=O)N(c2ccc(C#Cc3ccccc3)cn2)CC1C(C)(C)C (racemic) and give its measured Emax.
106

Consider the compound CC1CN(c2ccc(C#Cc3ccccc3)cn2)C(=O)OC1(C)C (racemic) and give its measured Emax.
109

Consider the compound CC1(C)OC(=O)N(c2ccc(C#Cc3ccccc3)cn2)CC1O (racemic) and give its measured Emax.
118

Consider the compound CC1(C)CN(c2ccc(C#Cc3ccccc3)cn2)C(=O)C1O (racemic) and give its measured Emax.
114

Consider the compound COC1CN(c2ccc(C#Cc3cccc(F)c3)cn2)C(=O)OC1(C)C (racemic) and give its measured Emax.
52

Consider the compound CC1(C)CCN(c2cnc(C#Cc3cccnc3)cn2)C(=O)C1 and give its measured Emax.
76

Consider the compound CC1(C)CC(=O)N(c2ncc(C#Cc3cccc(Cl)c3)cn2)C1 and give its measured Emax.
26

Consider the compound CN1C(=O)N(c2ccc(C#Cc3cccnc3)cn2)CC1(C)C and give its measured Emax.
89

Consider the compound O=C1N(c2ccc(C#Cc3cccnc3)cn2)CC2CCCCN12 (racemic) and give its measured Emax.
51

Consider the compound CN1C(=O)N(c2ccc(C#Cc3cnn(C)c3)cn2)CC1(C)C and give its measured Emax.
41

Consider the compound CC1(C)CCN(c2ccc(C#Cc3ccc(F)c(F)c3)cn2)C(=O)O1 and give its measured Emax.
69

Consider the compound CC1(C)CC(=O)N(c2ccc(C#Cc3ccccc3)cn2)C1 and give its measured Emax.
129

Consider the compound CC(C)N1C(=O)N(c2ccc(C#Cc3ccccc3)cn2)CC1(C)C and give its measured Emax.
133

###

# TESTED_TARGET: human mGlu5a receptor (Homo sapiens (Human))
# ASSAY: Intracellular Ca2+ mobilization assay (mGlu5 PAM)
# Type: cell-based
# MEASUREMENT_SETUP: HEK-293 cells stably transfected with human mGlu5a; L-glutamate added at EC20 after pre-incubation with test compound; read-out: EC50 (nM) mGlu5PAM
Provide the reported log10 of EC50 of each item.
Form field - Quantity: EC50; Unit: nM; Scale: log10

Consider the compound CN1C(=O)N(c2ccc(C#Cc3cc(F)ccc3F)cn2)CCC1(C)C [Example 68] and give its measured log10 of EC50.
1.61

Consider the compound CC1(C)CN(c2ccc(C#Cc3ccccc3)cn2)C(=O)C1O (racemic) [Example 14] and give its measured log10 of EC50.
2.59

Consider the compound CC1(C)CC(=O)N(c2ncc(C#Cc3cc(F)ccc3F)cn2)C1 [Example 121] and give its measured log10 of EC50.
1.61

Consider the compound O=C1OC2(CCC2)CN1c1ccc(C#Cc2ccccc2)cn1 [Example 10] and give its measured log10 of EC50.
1.40

Consider the compound CC1(C)CC(=O)N(c2ncc(C#Cc3ccccc3)cn2)C1 [Example 115] and give its measured log10 of EC50.
1.11

Consider the compound CN1C(=O)N(c2ncc(C#Cc3ccc(F)c(F)c3)cn2)CC1(C)C [Example 126] and give its measured log10 of EC50.
1.36

Consider the compound CC1(C)OC(=O)N(c2ccc(C#Cc3ccccc3)cn2)C1(C)C [Example 28] and give its measured log10 of EC50.
1.68

Consider the compound CN1C(=O)N(c2ccc(C#Cc3cccnc3)cn2)CC1(C)C [Example 48] and give its measured log10 of EC50.
1.15

Consider the compound COC1C(=O)N(c2ccc(C#Cc3cccc(C)c3)cn2)CC1(C)C (racemic) [Example 64] and give its measured log10 of EC50.
1.94
